Tested on: MCF7 (breast) carcinoma cell line
test-summary: Anti-tumor properties, MTT
Assay type: cell-based
condition-set: Homo sapiens; MCF7, 100 μM, 72 h; read-out: Percentage growth of tumor cell lines treated with the tested compounds (±SD)
API: label(entry) gives TRUE if the entry's activity at 100 µM is strictly smaller than 80%; on equality or larger values it gives FALSE.

1) COc1cc(/C=C/C(=O)CC(=O)/C=C/c2ccc(OC(=O)[C@H](C)NC(=O)OCC3c4ccccc4-c4ccccc43)c(OC)c2)ccc1OC(=O)[C@H](C)NC(=O)OCC1c2ccccc2-c2ccccc21 [Fmoc-Ala-Cur] ... TRUE
2) COc1cc(/C=C/C(=O)CC(=O)/C=C/c2ccc(OC(=O)[C@H](Cc3ccccc3)NC(=O)OCc3ccccc3)c(OC)c2)ccc1OC(=O)[C@H](Cc1ccccc1)NC(=O)OCc1ccccc1 [Cbz-Phe-Cur] ... TRUE
3) COc1cc(/C=C/C(=O)CC(=O)/C=C/c2ccc(OC(=O)C(C)NC(=O)OCc3ccccc3)c(OC)c2)ccc1OC(=O)C(C)NC(=O)OCc1ccccc1 (racemic) [Cbz-DL-Ala-Cur] ... TRUE

In the following, a different compound is considered.
[ask] Lab log: compare recorded activity at 100 µM with 80%; is it strictly lower for COc1cc(/C=C/C(=O)CC(=O)/C=C/c2ccc(OC(=O)[C@@H](NC(=O)OCC3c4ccccc4-c4ccccc43)C(C)C)c(OC)c2)ccc1OC(=O)[C@@H](NC(=O)OCC1c2ccccc2-c2ccccc21)C(C)C [Fmoc-Val-Cur] ?
[reply] FALSE

All figures here come from patent US10660967B2.
